Biological target: Beta-lactamase (Escherichia coli (strain K12))
Test: qHTS Inhibitors of AmpC Beta-Lactamase (assay without detergent); also: nearly all actives have a fitted effect of over 20% in size
Conditions: AmpC nitrocefin hydrolysis, absorbance 480 nm, 0.0001% Triton; series mostly up to 57.1 µM
Protocol: NIH Molecular Libraries Probe Production Network [MLPCN] NIH Chemical Genomics Center [NCGC] Assay Provider: Professor Brian Shoichet, UCSF Assay Overview: This aggregation profiling approach exploits the sensitivity of aggregate formation to detergent. Inhibition of b-lactamase is measured in the presence and absence of 0.01% Triton X-100. This particular assay had the prescence of 0.01% Triton X-100. […] AmpC activity was measured by following the absorbance at 480 nm. […]
The whole screen tested about 330,000 compounds, of which about 1,700 (0.52%) were called active. Calls follow the shape of the dose curve; as a rule, active = well fitted inhibition curve with a large enough effect; inconclusive = small, poorly fitted or top-dose-only effect; inactive = no such curve, though single readings can be large or run the other way. Shown is part of a subset that was picked to be rich in actives.
Please reply with one of these outcomes: true (active), false (inactive)

Call for entry O=C(NCc1ccccc1Cl)C(=O)NCC1CCCN1S(=O)(=O)c1cccs1 (centres undefined) :
false

Okay, and COc1ccccc1NC(=O)CSc1nnc(Cc2cccn2C)n1-c1ccc(F)cc1 ?
true

Would you kindly repeat that for Cc1c(C(=O)N(C)CCc2cnn(C)c2)oc2c(F)cccc12 ?
false

Next entry: Nc1cc(C(F)(F)F)ccc1N1CCOCC1
false
